Would you kindly list Emax for each of these compounds?
# tested-system: human M2 receptor (Homo sapiens, UniProt P08172)
# Sequence (P08172 whole entry): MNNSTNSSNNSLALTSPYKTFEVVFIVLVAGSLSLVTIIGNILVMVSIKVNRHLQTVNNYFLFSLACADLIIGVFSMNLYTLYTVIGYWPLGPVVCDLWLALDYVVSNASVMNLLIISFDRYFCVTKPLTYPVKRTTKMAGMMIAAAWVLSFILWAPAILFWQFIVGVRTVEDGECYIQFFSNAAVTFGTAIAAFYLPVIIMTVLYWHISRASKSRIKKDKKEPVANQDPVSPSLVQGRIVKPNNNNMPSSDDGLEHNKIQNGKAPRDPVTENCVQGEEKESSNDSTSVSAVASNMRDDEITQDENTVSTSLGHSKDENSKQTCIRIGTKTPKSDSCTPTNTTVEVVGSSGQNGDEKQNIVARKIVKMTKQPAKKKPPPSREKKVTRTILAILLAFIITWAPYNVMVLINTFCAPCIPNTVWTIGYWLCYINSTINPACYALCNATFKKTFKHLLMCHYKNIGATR
# experimental-setup: read-out: Efficiency
Answers are plain numbers, in %.

Sample answers from the record:
Documented Emax of CC[C@@H](NC(=O)c1cn(-c2ccccc2F)c2nc(N3C[C@@H](O)CC3=O)ccc2c1=O)C(F)(F)F : 99.3

Value of Emax reported for the compound O=C(N[C@@H](C1CC1)C(F)(F)F)c1cn(-c2c(F)cc(F)cc2F)c2nc(N3C[C@@H](O)[C@H](O)C3)ccc2c1=O is 100

CC(NC(=O)c1cn(-c2c(F)cc(F)cc2F)c2nc(N3C[C@@H](O)[C@H](O)C3)ccc2c1=O)C(F)(F)C(F)(F)F (single isomer, unassigned) [Example 550] has a reported Emax of 100

Give measured Emax for every item shown.
1. CCC(NC(=O)c1cn(-c2ccc(F)cc2F)c2nc(N3C[C@@H](O)CC3=O)ccc2c1=O)C(F)(F)F (some centres unmarked)
2. CC[C@@H](NC(=O)c1cn(-c2c(Cl)cccc2Cl)c2nc(N3C[C@@H](O)CC3=O)ccc2c1=O)C(F)(F)F

// result
[94.1, 83]

Values from patent US20190367516A1
